Tested on: Candida albicans
Assay: Antifungal activity against Candida albicans CGMCC 2.2086 assessed as inhibition of fungal growth incubated for 48 hrs in presence of FeCl3
Format: functional
Each entry below carries its reported MIC95.

Consider the worked cases shown below.
| smiles.entry | target.or.system | MIC95 |
| --- | --- | --- |
| CC(C)[C@H](N)C(=O)N[C@H](C(=O)N[C@H](CCCNC(=N)N)C(=O)N[C@@H](CCCNC(=N)N)C(=O)N[C@@H](Cc1c[nH]cn1)C(=O)N[C@H](C(=O)N[C@H](C(N)=O)C(C)C)C(C)C)C(C)C | Candida albicans | > 64 µM |
| CC[C@H](C)[C@H](N)C(=O)N[C@H](C(=O)N[C@H](CCCNC(=N)N)C(=O)N[C@@H](CCCNC(=N)N)C(=O)N[C@@H](Cc1c[nH]cn1)C(=O)N[C@H](C(=O)N[C@H](C(N)=O)[C@@H](C)CC)[C@@H](C)CC)[C@@H](C)CC | Candida albicans | > 64 µM |
| CC[C@H](C)[C@H](N)C(=O)N[C@H](C(=O)N[C@H](CCCNC(=N)N)C(=O)N[C@@H](CCCNC(=N)N)C(=O)N[C@@H](Cc1c[nH]cn1)C(=O)N[C@H](C(=O)N[C@H](C(=O)N[C@H](C(=O)N[C@H](C(=O)N[C@H](CCCNC(=N)N)C(=O)N[C@@H](CCCNC(=N)N)C(=O)N[C@@H](Cc1c[nH]cn1)C(=O)N[C@H](C(=O)N[C@H](C(N)=O)[C@@H](C)CC)[C@@H](C)CC)[C@@H](C)CC)[C@@H](C)CC)[C@@H](C)CC)[C@@H](C)CC)[C@@H](C)CC | Candida albicans | 64 µM |

Now for a further molecule.
So what does the record say about MIC95 for `CC(C)[C@H](N)C(=O)N[C@H](C(=O)N[C@H](CCCNC(=N)N)C(=O)N[C@@H](CCCNC(=N)N)C(=O)N[C@@H](Cc1c[nH]cn1)C(=O)N[C@H](C(=O)N[C@H](C(=O)N[C@H](C(=O)N[C@H](C(=O)N[C@H](CCCNC(=N)N)C(=O)N[C@@H](CCCNC(=N)N)C(=O)N[C@@H](Cc1c[nH]cn1)C(=O)N[C@H](C(=O)N[C@H](C(N)=O)C(C)C)C(C)C)C(C)C)C(C)C)C(C)C)C(C)C)C(C)C` ?
> 64 µM

----------
Test system: Candida parapsilosis
Assay: Antifungal activity against Candida parapsilosis CGMCC 2.3989 assessed as inhibition of fungal growth incubated for 48 hrs
Assay type: functional
Settings: Lodderomyces parapsilosis
Each entry below carries its reported MIC95.
Reply numerically in µM, unit not repeated.

| compound | val |
| --- | --- |
| CC[C@H](C)[C@H](N)C(=O)N[C@H](C(=O)N[C@H](CCCNC(=N)N)C(=O)N[C@@H](CCCNC(=N)N)C(=O)N[C@@H](Cc1c[nH]cn1)C(=O)N[C@H](C(=O)N[C@H](C(=O)N[C@H](C(=O)N[C@H](C(=O)N[C@H](CCCNC(=N)N)C(=O)N[C@@H](CCCNC(=N)N)C(=O)N[C@@H](Cc1c[nH]cn1)C(=O)N[C@H](C(=O)N[C@H](C(N)=O)[C@@H](C)CC)[C@@H](C)CC)[C@@H](C)CC)[C@@H](C)CC)[C@@H](C)CC)[C@@H](C)CC)[C@@H](C)CC | 32 |

So what does the record say about MIC95 for CC(=O)N1CCN(c2ccc(OCC3COC(Cn4ccnc4)(c4ccc(Cl)cc4Cl)O3)cc2)CC1 (stereo not drawn) [KETOCONAZOLE] ?
4

All values here come from ChEMBL document CHEMBL6134779.
